For each record, write down the corresponding apparent KD of MS2 coat protein.
- System: MS2 coat protein
- protocol-summary: apparent KD of MS2 coat protein; designed switch direction (-1 OFF switch, 1 ON switch): -1; higher = weaker reporter binding
- test-settings: input ligand: FMN 200 uM
// units = nM; emit number, no label

Qu. Provide measured apparent KD of MS2 coat protein value, entry: AAUGCUGGUGUGAGGAUAUCAGCUGAAGAACAGAAUGAGAAGGCACAUGAGGAUCACCCAUGUAAAAGAAUAAA [Atbelaqu] (Eterna round: R97, puzzle: Brourd's mod of Exclusion 4)
Ans. 35.9

Qu. Provide measured apparent KD of MS2 coat protein value, entry: GUAAAUCAUGUAGGAUAUGCAUAGCAAAGCUAUGCAGAAGGACAUGAGGAUCACCCAUGUCAUUCCGUCUGGAGACAGACGGAA [Mat - Exclusion NG 1 - Mod of JL - D59] (Eterna round: R96, puzzle: Exclusion NG 1)
Ans. 121

Qu. Provide measured apparent KD of MS2 coat protein value, entry: CACAUCAAAGGAUAUCUGGACCAAAACAUGAGGAUCACCCAUGUAUGAACAUGGCUCGACGGAGAAGGUUGGCUUC [Eternabot (L1) Solution 51] (Eterna round: R97, puzzle: Exclusion 5)
Ans. 86.2

Qu. Provide measured apparent KD of MS2 coat protein value, entry: UAUUAGCAAGCGAGAUCCCACAUGAGGAUCACCCAUGUGCUCGUCUUAUAAAGUACUGUGACGAAAGUCACGGUACU [Mat - Sensor, turn-off var - Eli Mod - D7] (Eterna round: R97, puzzle: Sensor, turn-off variant 1)
Ans. 15.2

Qu. Provide measured apparent KD of MS2 coat protein value, entry: AGCUGUGGCCGAGGAUAUCUCAUAGUCCCAACCGAAAUAUAAUCGGACAUGAGGAUCACCCAUGUAGAGAAGGCGGUCUCAGCA [Eli eng2 - 071] (Eterna round: R96, puzzle: Exclusion NG 2)
Ans. 115

Qu. Provide measured apparent KD of MS2 coat protein value, entry: AGUUAAGCAGGAUAUAUCCGGGAUAACAUGAGGAUCACCCAUGUGACCGCUUGAUAUCCUAUAGAAGGGCUUAAGA [Mod of ViennaUCT 25 - Jieux - Exclusion 5] (Eterna round: R97, puzzle: Exclusion 5)
Ans. 68.2

Qu. Provide measured apparent KD of MS2 coat protein value, entry: CCCACAAGCUUUUUGCUCGACAUGAGGAUCACCCAUGUUGAAUGGGUUAUAUAUAUAUGAAACAUAUAUAUAUACCU [-24.7, -47.5 kcal, A 32%] (Eterna round: R97, puzzle: Sensor, turn-off variant 1)
Ans. 20.4

Qu. Provide measured apparent KD of MS2 coat protein value, entry: UUAACAUGCUGGUGAUCAUACAUGAGGAUCACCCAUGUAACAAGCUUUUUGUUCGUCUUAUAAGAUCACCAGCAUGU [Stov1/9-B1] (Eterna round: R97, puzzle: Sensor, turn-off variant 1)
Ans. 18.7

Qu. Provide measured apparent KD of MS2 coat protein value, entry: AAAUAAUGAGGAUAUACAGUGUAAAACAUGAGGAUCACCCAUGUUCUUCAAUUAGUAUUUGUAGAAGGCAUAGGUA [JR_Ex5_Sub094] (Eterna round: R97, puzzle: Exclusion 5)
Ans. 38.5

Qu. Provide measured apparent KD of MS2 coat protein value, entry: AGAGAAUAGUCAGGAUAUGUGAAUAGAUAGAGAACAGAAGGGACACAUGAGGAUCACCCAUGUGAAGUCUUGAGGCUGCAUGGA [Prohibition 22 - Jieux - Exclusion NG 1] (Eterna round: R96, puzzle: Exclusion NG 1)
Ans. 43.9

Qu. Provide measured apparent KD of MS2 coat protein value, entry: AAACAGGAAGGAUAUACAUGAGGAUCACCCAUGUAGGAAAACCUACCAAAAGACCCAAGUAGAAGGUCCGAAAA [jl-ex3-4.64 ViennaUCT mod] (Eterna round: R97, puzzle: Exclusion 3)
Ans. 25.8

Qu. Provide measured apparent KD of MS2 coat protein value, entry: UUUUAGUCAGGAUAUACAUGAGGAUCACCCAUGUAAAAUUUUAAUUUAAUUUUAAGGUGUAGAAGGGACAUUUA [Ex3 #6] (Eterna round: R97, puzzle: Exclusion 3)
Ans. 28.4

Qu. Provide measured apparent KD of MS2 coat protein value, entry: GCCGAAUAAGUGAGGAUAUACCUAUGGAUACAUAGGUAGAAGGCACAUGAGGAUCACCCAUGUACCUCAACGGC [JL-BMX4-4.16 Eli mod] (Eterna round: R97, puzzle: Brourd's mod of Exclusion 4)
Ans. 34.5

Qu. Provide measured apparent KD of MS2 coat protein value, entry: GGAGAGGCAGGAUAUACAUGAGGAUCACCCAUGUGAGCGAGGAGAACGAGCAAGAGAGGUAGAAGGGCCGGGAG [AK-MS2ROC-r4-exclusion3-27] (Eterna round: R97, puzzle: Exclusion 3)
Ans. 46.5

Qu. Provide measured apparent KD of MS2 coat protein value, entry: ACAUGAGGAUCACCCAUGUACACGUAAUGGCUCAUGUAGAGUCAGGAUAUGCGUGGCGAACUCGCGCAGAAGGGACAAGACUGG [Deportation 21 - Jieux - Exclusion NG 3] (Eterna round: R96, puzzle: Exclusion NG 3)
Ans. 27.1

Qu. Provide measured apparent KD of MS2 coat protein value, entry: GUUAACGAAGAGGAUAUAUGAUAUCAAAGCUUCAUAGAAGGCUUCACAUGAGGAUCACCCAUGUGAUCUUCUUU [jl-ex6-4.09 ViennaUCT mod] (Eterna round: R97, puzzle: Exclusion 6)
Ans. 44.2

Qu. Provide measured apparent KD of MS2 coat protein value, entry: CCGGCUUACUAGGAUAUCAGAGUCGAAAGACUCUGAGAAGGAGUAACAUGAGGAUCACCCAUGUGUCCUACCGG [Mod of Eli 9 - Jieux - Exclusion 6] (Eterna round: R97, puzzle: Exclusion 6)
Ans. 113

Qu. Provide measured apparent KD of MS2 coat protein value, entry: CGCAUGUAAGGAUAUUAGUAGUAGUCAGAAUAGACUAUUACUGAGAAGGUACAUGAGGAUCACCCAUGUCAGCG [Eli x4 4.17] (Eterna round: R97, puzzle: Exclusion 4)
Ans. 361
